Reported pIC50 values are given for each entry in this list.
- TARGET: BRD4 Bromodomain 1 (BRD4 BD1) (Homo sapiens, UniProt O60885)
- Construct: 44-168 and BRD4 BD2
- TEST METHOD NOTES: AlphaScreen binding assay, BRD4 BD1
- CONDITION INFO: His-tagged BRD4 BD1 50 nM, biotinylated H4 (1-21) K5/8/12/16 tetra-acetylated peptide 50 nM, compounds listed under IC50 range headings
pIC50: −log10 of the molar value.

Example entries and their recorded answers appear below.
| COMPOUND | VALUE REPORTED |
| --- | --- |
| CC(=O)N1c2ccc(-c3cnn(C4COC4)c3)c(Oc3nc4ccccc4o3)c2CC[C@@H]1C [I-79] | 6.00 to 7.00 |
| C[C@H]1CCc2c(ccc(-c3cnoc3)c2Oc2ccccc2)N1C(=O)C1CC1 [I-231] | 5.00 to 6.00 |
| COC(=O)N1c2ccc(-c3cnn(CC(C)(C)O)c3)c(Oc3ncccc3C#N)c2CC[C@@H]1C [I-567] | 5.00 to 6.00 |
| CC(=O)N1c2ccc(-c3cnn(CC(C)(C)O)c3)c(OCC(=O)N3CCCC3)c2CC[C@@H]1C [I-429] | 5.00 to 6.00 |

IN: pIC50 of CC(=O)N1c2ccc(-c3cnn(CCO)c3)c(Oc3ncc(C(F)(F)F)cn3)c2CC[C@@H]1C [I-542] on BRD4 Bromodomain 1 (BRD4 BD1) (Homo sapiens, UniProt O60885)?
OUT: 6.00 to 7.00

IN: pIC50 of CC(=O)N1c2ccc(-c3cnn(C4CC4)c3)c(OCC3CC3)c2CC[C@@H]1C [I-390] on BRD4 Bromodomain 1 (BRD4 BD1) (Homo sapiens, UniProt O60885)?
OUT: 6.00 to 7.00

IN: pIC50 of C[C@H]1CCc2c(ccc(-c3cnn(C4CNC4)c3)c2Oc2ccc(F)cc2)N1C(=O)C1CC1 [I-170] on BRD4 Bromodomain 1 (BRD4 BD1) (Homo sapiens, UniProt O60885)?
OUT: 6.00 to 7.00

IN: pIC50 of COC(=O)N1c2ccc(-c3cnn(C4CCN(C)C4)c3)c(OC3CCC3)c2CC[C@@H]1C (some centres unmarked) [I-247] on BRD4 Bromodomain 1 (BRD4 BD1) (Homo sapiens, UniProt O60885)?
OUT: 6.00 to 7.00
